target: JAK-1 (Homo sapiens); experiment: JAK enzymatic assay (Eurofins KinaseProfiler/IC50Profiler, radiometric), JAK-1; conditions: selectivity IC50 ratio for JAK1 versus JAK2, human enzymes
Sequence (P23458 whole entry): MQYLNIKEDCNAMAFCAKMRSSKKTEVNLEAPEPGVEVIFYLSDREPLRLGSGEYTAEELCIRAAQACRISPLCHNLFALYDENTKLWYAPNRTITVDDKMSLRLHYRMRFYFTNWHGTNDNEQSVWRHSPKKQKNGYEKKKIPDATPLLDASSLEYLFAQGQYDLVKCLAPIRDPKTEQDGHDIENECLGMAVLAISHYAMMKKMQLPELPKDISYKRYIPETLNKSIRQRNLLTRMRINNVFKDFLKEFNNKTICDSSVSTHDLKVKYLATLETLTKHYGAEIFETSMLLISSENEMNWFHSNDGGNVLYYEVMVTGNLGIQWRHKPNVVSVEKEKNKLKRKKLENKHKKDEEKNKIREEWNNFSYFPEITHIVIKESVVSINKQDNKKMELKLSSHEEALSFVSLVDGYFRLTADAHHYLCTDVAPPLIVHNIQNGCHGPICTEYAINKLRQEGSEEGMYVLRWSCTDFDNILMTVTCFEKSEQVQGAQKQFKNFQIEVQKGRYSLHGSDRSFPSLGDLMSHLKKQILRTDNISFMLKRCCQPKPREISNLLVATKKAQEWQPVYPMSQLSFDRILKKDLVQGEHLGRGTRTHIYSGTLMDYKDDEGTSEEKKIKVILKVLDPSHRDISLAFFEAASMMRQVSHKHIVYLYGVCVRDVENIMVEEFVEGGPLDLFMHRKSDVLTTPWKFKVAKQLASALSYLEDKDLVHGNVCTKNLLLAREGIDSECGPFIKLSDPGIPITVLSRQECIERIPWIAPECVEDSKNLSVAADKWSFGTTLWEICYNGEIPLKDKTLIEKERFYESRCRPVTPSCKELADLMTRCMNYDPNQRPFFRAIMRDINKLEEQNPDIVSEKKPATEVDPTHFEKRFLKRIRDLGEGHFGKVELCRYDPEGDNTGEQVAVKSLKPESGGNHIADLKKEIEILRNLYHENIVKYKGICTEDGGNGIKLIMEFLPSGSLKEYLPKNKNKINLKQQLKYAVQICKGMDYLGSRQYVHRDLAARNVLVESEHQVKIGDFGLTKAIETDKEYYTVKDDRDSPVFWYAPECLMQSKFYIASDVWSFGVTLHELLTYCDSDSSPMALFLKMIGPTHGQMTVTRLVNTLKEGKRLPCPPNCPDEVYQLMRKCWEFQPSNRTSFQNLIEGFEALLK
Lab note - cut at 10 for JAK1/JAK2 selectivity: 1 (yes) if strictly below, 0 (no) if not.

# input Criterion: JAK1/JAK2 selectivity strictly below 10. Is it met by CC(C)(C)NS(=O)(=O)c1ccc(NC(=O)CN2CCN(c3ncnc4[nH]ccc34)CC2)cc1 [Compound 2] ?
# output 0 (no)

# input Criterion: JAK1/JAK2 selectivity strictly below 10. Is it met by O=C(CCN1CCN(c2nc[nH]c3nccc2-3)CC1)Nc1cccc(S(=O)(=O)N2CCCC2)c1 [Compound 39] ?
# output 1 (yes)
